test system: SW579 cells of thyroid cancer; assay: Matrigel transwell invasion test; format: cell-based, human; conditions: dose 1 μM, 24 h
No end group written: not given here.
Assay Readout: invasion inhibition rate (%)

1) MGSTGVPGFSPRRSSVEAKMQSTSCSVRKSSTVTAWPAVVLLLSWGQRRGG-OH [HMMW-VII]
20.11
2) MERAGVPGFSPRRSSVEAKMQSTSCSVRKSSTVTAWPAVVLLLSWGQRRGG-OH [HMMW-I]
19.63
3) MERAGVPGFSPRRSSVEAKMQSTSCSVRKSSTVTAWPAVVLLLSWGQRRGE-OH [HMMW-VIII]
19.61

###

tested on: A549 cells of lung cancer; test: Matrigel transwell invasion test; type: cell-based, human; details: dose 4 μM, 24 h
No end group written: not given here.
Listed below: invasion inhibition rate values for each entry.
Assay Readout: invasion inhibition rate (%)

1) MERAGVPGFSPRRSSVEAKMQSTSCSVRKSSTVTAWPAVVLLLHTSKDDEE-OH [HMMW-II]
55.12
2) MERAGVPGFSPRRSSVEAKMQSTSCSVRKSSTVTAWPAVVLLLSWGQRRGG-OH [HMMW-I]
51.32
3) MGRAGVPGFSPRRSSVEAKMQSTSCSVRKSSTVTAWPAVVLLLSWGQRRGG-OH [HMMW-IX]
60.32

Source of measurements: patent US12565522B2
